Task for the reader: assign each of the following compounds its reported IC50.
experimental.system: PARP7 (Homo sapiens (Human))
Sequence (Q7Z3E1 whole entry): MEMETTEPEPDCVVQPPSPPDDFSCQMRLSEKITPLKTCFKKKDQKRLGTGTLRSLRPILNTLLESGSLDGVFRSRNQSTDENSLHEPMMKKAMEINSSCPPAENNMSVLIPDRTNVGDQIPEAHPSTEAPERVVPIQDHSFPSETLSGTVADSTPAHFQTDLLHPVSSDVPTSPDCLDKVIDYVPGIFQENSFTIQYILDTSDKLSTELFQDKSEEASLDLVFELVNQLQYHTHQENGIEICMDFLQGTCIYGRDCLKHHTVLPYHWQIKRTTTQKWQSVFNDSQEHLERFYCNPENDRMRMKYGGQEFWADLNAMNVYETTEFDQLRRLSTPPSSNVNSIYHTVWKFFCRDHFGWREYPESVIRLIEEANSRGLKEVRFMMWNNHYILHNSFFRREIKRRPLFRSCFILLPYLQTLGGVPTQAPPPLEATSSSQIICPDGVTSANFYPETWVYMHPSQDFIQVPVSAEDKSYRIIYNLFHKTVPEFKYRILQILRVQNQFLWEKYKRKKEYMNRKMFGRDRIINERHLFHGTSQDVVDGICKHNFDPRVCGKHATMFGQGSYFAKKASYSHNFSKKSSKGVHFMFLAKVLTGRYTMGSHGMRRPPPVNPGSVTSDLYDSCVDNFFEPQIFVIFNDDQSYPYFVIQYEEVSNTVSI
protocol: Enzymatic assay for inhibition of PARP7: TR-FRET displacement of biotinylated Probe A from the TIPARP active site
reported.conditions: Table A-1

>>> observed_value("O=C(CCOC[C@@H](Nc1cn[nH]c(=O)c1C(F)(F)F)C1CCNCC1)N1CCN(c2ncc(C(F)(F)F)cn2)CC1")
"≥ 1 µM"

Report IC50 for every entry below.
1. C[C@@H](COCCC(=O)N1CCN(c2ncc(C(F)(F)F)cn2)CC1)Sc1cn[nH]c(=O)c1C(F)(F)F
2. C[C@H](CC(=O)N1CCN(c2ccc(C#N)cn2)CC1)OCCNc1cn[nH]c(=O)c1C(F)(F)F [Example 528B]
3. N#Cc1cccnc1N1CCN(C(=O)CCOC[C@@H]2CCCN2c2cn[nH]c(=O)c2C(F)(F)F)CC1
4. O=c1[nH]ncc(N2Cc3cccc(N4CCOCC4)c3C2)c1C(F)(F)F
5. O=C(C[C@@H]1CC[C@H](CNc2cn[nH]c(=O)c2C(F)(F)F)O1)N1CCN(c2ncc(C(F)(F)F)cn2)CC1 [Example 568 Isomer D]
6. O=C(c1cccc(OCC2c3ccccc3CN2c2cn[nH]c(=O)c2C(F)(F)F)c1)N1CCN(c2ccccn2)CC1 (stereo not shown)

1. < 0.1 µM
2. < 0.1 µM
3. < 0.1 µM
4. 0.1 to 1 µM
5. < 0.1 µM
6. < 0.1 µM
